System: P. aeruginosa MB9798 (efflux+, IMP-1 plasmid)
Conditions: efflux + (MB9798) strain; imipenem at 2 μg/mL; in the presence of a class A, C, D serine β-lactamase inhibitor closely related to relebactam
Rule: YES for MB9798 MITC95 P. aeruginosa uM Efflux WT not less than 3 µM, NO for anything less.

{"molecule": "NS(=O)(=O)c1c(S(=O)(=O)N[C@@H]2CCNC2)ccc(N2CCCC(=NO)C2=O)c1-c1nn[nH]n1 [Example 152]", "assigned_label": "YES"}
{"molecule": "NCCC1CCN(c2ccc(S(=O)(=O)NC[C@H](O)CN)c(S(N)(=O)=O)c2-c2nn[nH]n2)CC1 [Example 24]", "assigned_label": "NO"}
{"molecule": "N[C@H]1CCN(c2ccc(S(=O)(=O)N[C@@H]3CCNC3)c(S(N)(=O)=O)c2-c2nn[nH]n2)C[C@H]1F [Example 199]", "assigned_label": "NO"}
{"molecule": "NC[C@@H](O)CNS(=O)(=O)c1ccc(N2CCC[C@H](CN)C2)c(-c2nnn[nH]2)c1S(N)(=O)=O [Example 39]", "assigned_label": "YES"}
{"molecule": "NS(=O)(=O)c1c(S(=O)(=O)C2CNC2)ccc(N2CCCC(CO)C2)c1-c1nnn[nH]1 (stereo not shown) [Example 57]", "assigned_label": "YES"}
{"molecule": "NC[C@@H](O)CNS(=O)(=O)c1ccc(NC2CCC(N)C2)c(-c2nn[nH]n2)c1S(N)(=O)=O (stereo partly shown) [compound 184]", "assigned_label": "YES"}
{"molecule": "NS(=O)(=O)c1ccc(N2CCC3(CCNCC3)C2=O)c(-c2nn[nH]n2)c1S(N)(=O)=O [Example 134]", "assigned_label": "YES"}

----------
Entries and their pIC50
Molecular target: UniProt Q5U7L7
Assay: biochemical
Settings: CCF2-FA fluorescence assay; read-out: VIM2 IC50
pIC50: −log10 of the molar value.
measurement_name: pIC50

{"smiles_representation": "NCCN1CCN(c2ccc(S(=O)(=O)NC[C@H](O)CN)c(S(N)(=O)=O)c2-c2nnn[nH]2)CC1", "study_system": "UniProt Q5U7L7", "measurement_name": "pIC50", "value_measured": 8.51}
{"smiles_representation": "NCCNS(=O)(=O)c1ccc(N2CCN(CCCO)CC2)c(-c2nnn[nH]2)c1S(N)(=O)=O", "study_system": "UniProt Q5U7L7", "measurement_name": "pIC50", "value_measured": 7.83}
{"smiles_representation": "NS(=O)(=O)c1c(S(=O)(=O)N[C@@H]2CCNC2)ccc(N2CCNC2=S)c1-c1nn[nH]n1", "study_system": "UniProt Q5U7L7", "measurement_name": "pIC50", "value_measured": 8.94}
{"smiles_representation": "NC[C@@H](O)CNS(=O)(=O)c1ccc(N2CCC(CO)CC2)c(-c2nnn[nH]2)c1S(N)(=O)=O", "study_system": "UniProt Q5U7L7", "measurement_name": "pIC50", "value_measured": 9.15}
{"smiles_representation": "NS(=O)(=O)c1c(S(=O)(=O)N[C@@H]2CCNC2)ccc(N2CCC(CCF)CC2)c1-c1nnn[nH]1", "study_system": "UniProt Q5U7L7", "measurement_name": "pIC50", "value_measured": 9.31}
{"smiles_representation": "NS(=O)(=O)c1c(S(=O)(=O)C2CNC2)ccc(N2CCN(CCCO)CC2)c1-c1nnn[nH]1", "study_system": "UniProt Q5U7L7", "measurement_name": "pIC50", "value_measured": 7.45}
{"smiles_representation": "NS(=O)(=O)c1c(S(=O)(=O)N[C@@H]2CCNC2)ccc(N2CCC(Oc3ccccn3)CC2)c1-c1nnn[nH]1", "study_system": "UniProt Q5U7L7", "measurement_name": "pIC50", "value_measured": 9.33}

----------
Molecular target: VIM-2 (Escherichia coli)
Assay: biochemical
Conditions: CCF2-FA fluorescence assay; read-out: VIM2 IC50
Entries and their IC50

{"compound": "NC/C=C1\\CCCN(c2ccc(S(=O)(=O)NC[C@H](O)CN)c(S(N)(=O)=O)c2-c2nn[nH]n2)C1 (single isomer, unassigned; isomer b) [Example 206]", "unit": "nM", "IC50": 1.52}
{"compound": "N[C@@H]1CCCN(c2ccc(S(=O)(=O)N[C@@H]3CCNC3)c(S(N)(=O)=O)c2-c2nnn[nH]2)C1 [Example 86]", "unit": "nM", "IC50": 14}
{"compound": "NC[C@@H](O)CNS(=O)(=O)c1ccc(N2CCC3(CC2)CC3N)c(-c2nn[nH]n2)c1S(N)(=O)=O (stereo partly shown) [Example 12]", "unit": "nM", "IC50": 17.6}
{"compound": "CN1CCOC2(C1)CN(c1ccc(S(=O)(=O)N[C@@H]3CCNC3)c(S(N)(=O)=O)c1-c1nnn[nH]1)C2 [Example 115]", "unit": "nM", "IC50": 19.2}
{"compound": "NC[C@@H](O)CNS(=O)(=O)c1ccc(N2CC[C@@H](N)[C@H](F)C2)c(-c2nn[nH]n2)c1S(N)(=O)=O [Example 2]", "unit": "nM", "IC50": 4.04}
{"compound": "NCCNS(=O)(=O)c1ccc(N2CCC(CO)CC2)c(-c2nnn[nH]2)c1S(N)(=O)=O [Example 43]", "unit": "nM", "IC50": 0.61}
{"compound": "NCCNS(=O)(=O)C1CCN(c2ccc(S(=O)(=O)N[C@@H]3CCNC3)c(S(N)(=O)=O)c2-c2nn[nH]n2)CC1 [Example 167]", "unit": "nM", "IC50": 0.4}

----------
Test system: P. aeruginosa MB9798 (efflux+, IMP-1 plasmid)
Settings: efflux + (MB9798) strain; imipenem at 2 μg/mL; in the presence of a class A, C, D serine β-lactamase inhibitor closely related to relebactam
Structures can show the parent of a compound that is named as a salt.
Entries and their MB9798 MITC95 P. aeruginosa uM Efflux WT

{"compound": "NC[C@@H](O)CNS(=O)(=O)c1ccc(N2CCC(C(N)=O)C2)c(-c2nn[nH]n2)c1S(N)(=O)=O (stereo partly shown) [Example 118]", "MB9798 MITC95 P. aeruginosa uM Efflux WT": "1.56 µM"}
{"compound": "NCC1CCN(c2ccc(S(=O)(=O)N[C@H](CN)CO)c(S(N)(=O)=O)c2-c2nn[nH]n2)CC1 [Example 186]", "MB9798 MITC95 P. aeruginosa uM Efflux WT": "1.56 µM"}
{"compound": "NS(=O)(=O)c1c(S(=O)(=O)N[C@@H]2CCNC2)ccc(N2CCC(CCO)C2)c1-c1nnn[nH]1 (stereo partly shown) [Example 81]", "MB9798 MITC95 P. aeruginosa uM Efflux WT": "6.25 µM"}
{"compound": "NC[C@@H](O)CNS(=O)(=O)c1ccc(N2CCC(F)(CO)CC2)c(-c2nn[nH]n2)c1S(N)(=O)=O [Example 22]", "MB9798 MITC95 P. aeruginosa uM Efflux WT": "1.56 µM"}
{"compound": "NC(=O)[C@H]1CN(c2ccc(S(=O)(=O)N[C@@H]3CCNC3)c(S(N)(=O)=O)c2-c2nn[nH]n2)CCN1 [Example 197]", "MB9798 MITC95 P. aeruginosa uM Efflux WT": "3.13 µM"}
{"compound": "NC[C@@H](O)CNS(=O)(=O)c1ccc(N2CCC(CC(N)=O)CC2)c(-c2nn[nH]n2)c1S(N)(=O)=O [Example 25]", "MB9798 MITC95 P. aeruginosa uM Efflux WT": "3.13 µM"}
{"compound": "NCCC(=O)N1CCN(c2ccc(S(=O)(=O)NC[C@H](O)CN)c(S(N)(=O)=O)c2-c2nn[nH]n2)CC1 [Example 145]", "MB9798 MITC95 P. aeruginosa uM Efflux WT": "0.78 µM"}
{"compound": "NCCC1CCCN(c2ccc(S(=O)(=O)NC[C@H](O)CN)c(S(N)(=O)=O)c2-c2nn[nH]n2)CC1 (stereo partly shown) [Example 140, trifluoroacetate]", "MB9798 MITC95 P. aeruginosa uM Efflux WT": "1.56 µM"}
{"compound": "NC[C@@H](O)CNS(=O)(=O)c1ccc(N2C[C@@H]3[C@@H](CN)[C@@H]3C2)c(-c2nn[nH]n2)c1S(N)(=O)=O [Example 11]", "MB9798 MITC95 P. aeruginosa uM Efflux WT": "6.25 µM"}
{"compound": "NS(=O)(=O)c1c(S(=O)(=O)C2CNC2)ccc(N2CC[C@H](CO)[C@H](F)C2)c1-c1nnn[nH]1 [Example 61]", "MB9798 MITC95 P. aeruginosa uM Efflux WT": "6.25 µM"}
{"compound": "NCC1CCN(c2ccc(S(=O)(=O)N[C@@H]3CCNC3)c(S(N)(=O)=O)c2-c2nnn[nH]2)CC1 [Example 77]", "MB9798 MITC95 P. aeruginosa uM Efflux WT": "0.78 µM"}
{"compound": "NC[C@@H](O)CNS(=O)(=O)c1ccc(N2CC[C@H](N)[C@H](F)C2)c(-c2nn[nH]n2)c1S(N)(=O)=O [Example 195]", "MB9798 MITC95 P. aeruginosa uM Efflux WT": "0.78 µM"}
{"compound": "NS(=O)(=O)c1c(S(=O)(=O)N[C@@H]2CCNC2)ccc(N2CCOC(CCO)C2)c1-c1nnn[nH]1 (stereo partly shown) [Example 105]", "MB9798 MITC95 P. aeruginosa uM Efflux WT": "12.50 µM"}
{"compound": "NS(=O)(=O)c1c(S(=O)(=O)N[C@@H]2CCNC2)ccc(N2CCN(CCO)CC2)c1-c1nnn[nH]1 [Example 102]", "MB9798 MITC95 P. aeruginosa uM Efflux WT": "3.13 µM"}
{"compound": "NS(=O)(=O)c1c(S(=O)(=O)C2CNC2)ccc(N2CC3C(CO)C3C2)c1-c1nnn[nH]1 (stereo not shown) [Example 62]", "MB9798 MITC95 P. aeruginosa uM Efflux WT": "50.00 µM"}
{"compound": "NC(=O)C1CCN(c2ccc(S(=O)(=O)N[C@@H]3CCNC3)c(S(N)(=O)=O)c2-c2nnn[nH]2)C1 (stereo partly shown) [Example 92]", "MB9798 MITC95 P. aeruginosa uM Efflux WT": "1.56 µM"}
{"compound": "NS(=O)(=O)c1c(S(=O)(=O)N[C@@H]2CCNC2)ccc(N2CCN(C(=O)CO)CC2)c1-c1nnn[nH]1 [Example 109]", "MB9798 MITC95 P. aeruginosa uM Efflux WT": "3.13 µM"}
{"compound": "NC[C@@H](O)CNS(=O)(=O)c1ccc(N2CC[C@H](CN)[C@@H](F)C2)c(-c2nn[nH]n2)c1S(N)(=O)=O (stereo in doubt) [Example 13]", "MB9798 MITC95 P. aeruginosa uM Efflux WT": "0.78 µM"}
{"compound": "NCC=C1CCCN(c2ccc(S(=O)(=O)NC[C@H](O)CN)c(S(N)(=O)=O)c2-c2nn[nH]n2)C1 (single isomer, unassigned; isomer a) [Example 205]", "MB9798 MITC95 P. aeruginosa uM Efflux WT": "12.50 µM"}
{"compound": "NCC1CCN(c2ccc(S(=O)(=O)N[C@@H]3CCNC3)c(S(N)(=O)=O)c2-c2nn[nH]n2)CCN1 (stereo partly shown) [Example 163]", "MB9798 MITC95 P. aeruginosa uM Efflux WT": "6.25 µM"}
{"compound": "CC(N)C1CCN(c2ccc(S(=O)(=O)NC[C@H](O)CN)c(S(N)(=O)=O)c2-c2nnn[nH]2)CC1 (stereo partly shown) [Example 50]", "MB9798 MITC95 P. aeruginosa uM Efflux WT": "0.78 µM"}
{"compound": "NCCNS(=O)(=O)c1ccc(N2CCN(CCO)CC2)c(-c2nnn[nH]2)c1S(N)(=O)=O [Example 48]", "MB9798 MITC95 P. aeruginosa uM Efflux WT": "1.56 µM"}
{"compound": "NCCC1CCN(c2ccc(S(=O)(=O)N[C@@H]3CCNC3)c(S(N)(=O)=O)c2-c2nn[nH]n2)CC1 [Example 16]", "MB9798 MITC95 P. aeruginosa uM Efflux WT": "0.78 µM"}
{"compound": "NS(=O)(=O)c1c(S(=O)(=O)N[C@@H]2CCNC2)ccc(NC2CCOCC2)c1-c1nnn[nH]1 [Example 66]", "MB9798 MITC95 P. aeruginosa uM Efflux WT": "25.00 µM"}
{"compound": "CC1(O)CCCN(c2ccc(S(=O)(=O)C3CNC3)c(S(N)(=O)=O)c2-c2nnn[nH]2)C1 (stereo not shown) [Example 59]", "MB9798 MITC95 P. aeruginosa uM Efflux WT": "50.00 µM"}
{"compound": "NC1CCCCN(c2ccc(S(=O)(=O)C3CNC3)c(S(N)(=O)=O)c2-c2nnn[nH]2)C1 (stereo not shown) [Example 33]", "MB9798 MITC95 P. aeruginosa uM Efflux WT": "25.00 µM"}
{"compound": "NC[C@@H](O)CNS(=O)(=O)c1ccc(N2CCC(c3ncc[nH]3)CC2)c(-c2nn[nH]n2)c1S(N)(=O)=O [Example 201]", "MB9798 MITC95 P. aeruginosa uM Efflux WT": "1.56 µM"}
{"compound": "CN1CCN(c2ccc(S(=O)(=O)N[C@@H]3CCNC3)c(S(N)(=O)=O)c2-c2nnn[nH]2)CC1=O [Example 65]", "MB9798 MITC95 P. aeruginosa uM Efflux WT": "3.13 µM"}
